# system-under-test: SpHof1-2
# assay-text: SPOT peptide array binding signal intensity (averaged, normalized) (arbitrary units (background-subtracted, floor 0; scale differs between SH3 domains)); higher = stronger binding of the SH3 domain to the peptide
Everything with SPOT peptide array binding signal intensity lower than 50 is F; everything else, including exactly 50, is T.

Task: Tell me whether SPOT peptide array binding signal intensity is at least 50 here: "DKSRPPRPPPKPLHL"
Output: F

Task: Tell me whether SPOT peptide array binding signal intensity is at least 50 here: "PLQSKIPMLPSRRTM"
Output: T

Task: Tell me whether SPOT peptide array binding signal intensity is at least 50 here: "PHNPSPFFPPPDFND"
Output: F

Task: Tell me whether SPOT peptide array binding signal intensity is at least 50 here: "YRRKSIPFAPHQITA"
Output: F

Task: Tell me whether SPOT peptide array binding signal intensity is at least 50 here: "DTFLPPPPPPPSNFE"
Output: F

Task: Tell me whether SPOT peptide array binding signal intensity is at least 50 here: "FSRRQSMDIPSKNRN"
Output: T

Task: Tell me whether SPOT peptide array binding signal intensity is at least 50 here: "TIRRRAPLSLLESHT"
Output: F

Task: Tell me whether SPOT peptide array binding signal intensity is at least 50 here: "PPIPNAPLSPAPAVP"
Output: F

Task: Tell me whether SPOT peptide array binding signal intensity is at least 50 here: "RTRRRPPPPPIPSTQ"
Output: T

Task: Tell me whether SPOT peptide array binding signal intensity is at least 50 here: "STPQTMRQAPKRPDA"
Output: F

Task: Tell me whether SPOT peptide array binding signal intensity is at least 50 here: "RPVPPPPPMRTTTEG"
Output: T

Task: Tell me whether SPOT peptide array binding signal intensity is at least 50 here: "NQARKPFLLPATELS"
Output: F
